Below, each entry is listed alongside its reported recombinant barcode read abundance (log10).
assay: recombinant barcode read abundance after kanamycin selection (control-corrected) (log10(CPM+1)); higher = more efficient recombination; sequences stand for … in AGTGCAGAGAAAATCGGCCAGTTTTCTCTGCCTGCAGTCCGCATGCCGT…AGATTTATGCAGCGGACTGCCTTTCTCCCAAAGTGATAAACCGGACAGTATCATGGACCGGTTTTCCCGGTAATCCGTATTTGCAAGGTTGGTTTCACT; site = the 11-nt target;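 note: IS621 recombinase and bridge RNA in Escherichia coli cells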
// return just the number, without any unit appended

As a guide, the following entries are already answered.
>>> print(df.to_string())
                              item_sequence  endpoint_result
0  TAACCTACTTGGGTTCTAACCTGTTGCAT (site TAACTTACTAT)           0.0519
1  GGTATGACTTGGGTTCTAACCTGTTGCCT (site TGTATGACTAG)           0.0723
2  TCTTGTCCTTGGGTTCTAACCTGTTGCGG (site TCTTGTCCTTC)           0.0135
3  CGAACTACTTGGGTTCTAACCTGTTGCAT (site CGAACTACTAG)           0.0576
4  GAGCTACCTTGGGTTCTAACCTGTTGCCT (site GAGCTACCTCG)            0.549

Request: Recorded recombinant barcode read abundance (log10) for GTACGCACTTGGGTTCTAACCTGTTGCCT (site GTACGCACTAG) , please?
Response: 0.994

Request: Another sequence to look at: ACTAGGTCTTGGGTTCTAACCTGTTGCTA (site ACTAGCTCTTA)
Response: 0.0718
